FYI, the data here is from patent US7307166B1.

# Test system: FDCPmix cells
# assay_method_text: FDCPmix cell proliferation in the presence of IL-3 (MTT assay)
# Type: cell-based
# condition_summary: Dose 39 ng
property_name: Cell proliferation (% of Control)

### Prompt # input compound: CCCCCCCC(=O)OC[C@H]1O[C@@H](n2cnc3c(=O)[nH]c(N)nc32)C[C@@H]1OC(=O)CCCCCCC ; wanted: its Cell proliferation (% of Control)
### Response 86 ± 1 % of Control

### Prompt # input compound: CCCCCCCC/C=C\CCCCCCCC(=O)Nc1nc2c(ncn2[C@H]2C[C@H](OC(=O)CCCCCCC/C=C\CCCCCCCC)[C@@H](COC(=O)CCCCCCC/C=C\CCCCCCCC)O2)c(=O)[nH]1 ; wanted: its Cell proliferation (% of Control)
### Response 91 ± 5 % of Control

### Prompt # input compound: CCCCCCCC(=O)Nc1nc2c(ncn2[C@H]2C[C@H](OC(=O)CCCCCCC)[C@@H](COC(=O)CCCCCCC)O2)c(=O)[nH]1 ; wanted: its Cell proliferation (% of Control)
### Response 85 ± 2 % of Control

API: the following record is the query input.
### Prompt # input compound: CCCCCCCCCCCCCCCC(=O)Nc1nc2c(ncn2[C@H]2C[C@H](OC(=O)CCCCCCCCCCCCCCC)[C@@H](COC(=O)CCCCCCCCCCCCCCC)O2)c(=O)[nH]1 ; wanted: its Cell proliferation (% of Control)
### Response 76 ± 2 % of Control

###

Cell proliferation (% of Control) by entry:
# Test system: FDCPmix cells
# assay_method_text: FDCPmix cell proliferation in the presence of IL-3 (MTT assay)
# Assay type: cell-based
# condition_summary: Dose 156 ng

### Prompt # input compound: CCCCCCCC(=O)Nc1nc2c(ncn2[C@H]2C[C@H](OC(=O)CCCCCCC)[C@@H](COC(=O)CCCCCCC)O2)c(=O)[nH]1 ; wanted: its Cell proliferation (% of Control)
### Response 89 ± 6 % of Control

### Prompt # input compound: CCCCCCCC/C=C\CCCCCCCC(=O)Nc1nc2c(ncn2[C@H]2C[C@H](OC(=O)CCCCCCC/C=C\CCCCCCCC)[C@@H](COC(=O)CCCCCCC/C=C\CCCCCCCC)O2)c(=O)[nH]1 ; wanted: its Cell proliferation (% of Control)
### Response 92 ± 5 % of Control

### Prompt # input compound: CCCCCCCCCCCCCCCC(=O)Nc1nc2c(ncn2[C@H]2C[C@H](OC(=O)CCCCCCCCCCCCCCC)[C@@H](COC(=O)CCCCCCCCCCCCCCC)O2)c(=O)[nH]1 ; wanted: its Cell proliferation (% of Control)
### Response 72 ± 3 % of Control

### Prompt # input compound: CCCCCCCC(=O)OC[C@H]1O[C@@H](n2cnc3c(=O)[nH]c(N)nc32)C[C@@H]1OC(=O)CCCCCCC ; wanted: its Cell proliferation (% of Control)
### Response 84 ± 6 % of Control

###

# System: FDCPmix cells
# assay_method_text: FDCPmix cell proliferation in the presence of IL-3 (MTT assay)
# Type: cell-based
# condition_summary: Dose 10 ng
property_name: Cell proliferation (% of Control)

### Prompt # input molecule: CCCCCCCC(=O)Nc1nc2c(ncn2[C@H]2C[C@H](OC(=O)CCCCCCC)[C@@H](COC(=O)CCCCCCC)O2)c(=O)[nH]1 ; wanted: its Cell proliferation (% of Control)
### Response 87 ± 4 % of Control

### Prompt # input molecule: CCCCCCCCCCCCCCCC(=O)Nc1nc2c(ncn2[C@H]2C[C@H](OC(=O)CCCCCCCCCCCCCCC)[C@@H](COC(=O)CCCCCCCCCCCCCCC)O2)c(=O)[nH]1 ; wanted: its Cell proliferation (% of Control)
### Response 78 ± 1 % of Control

### Prompt # input molecule: CCCCCCCC(=O)OC[C@H]1O[C@@H](n2cnc3c(=O)[nH]c(N)nc32)C[C@@H]1OC(=O)CCCCCCC ; wanted: its Cell proliferation (% of Control)
### Response 84 ± 2 % of Control

API: the following record is the query input.
### Prompt # input molecule: CCCCCCCC/C=C\CCCCCCCC(=O)Nc1nc2c(ncn2[C@H]2C[C@H](OC(=O)CCCCCCC/C=C\CCCCCCCC)[C@@H](COC(=O)CCCCCCC/C=C\CCCCCCCC)O2)c(=O)[nH]1 ; wanted: its Cell proliferation (% of Control)
### Response 92 ± 5 % of Control
